Reference source: the RNAGym collection of RNA variant scans (doi:10.1093/molbev/msab373)

B1: Azoarcus group I ribozyme (parent)
chain: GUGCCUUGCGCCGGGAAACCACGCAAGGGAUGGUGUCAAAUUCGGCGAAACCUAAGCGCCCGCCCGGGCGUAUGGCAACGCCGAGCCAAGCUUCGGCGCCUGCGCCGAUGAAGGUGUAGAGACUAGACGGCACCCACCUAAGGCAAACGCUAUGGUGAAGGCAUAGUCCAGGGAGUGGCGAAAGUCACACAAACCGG

Variants of: B1
Test: reverse-splicing fitness (ratio to wild type); higher = more active; in vitro selection; Mg2+ level not given
// label = Y if reverse-splicing fitness is not less than 0.01, otherwise N

Example entries and their recorded answers appear below.
[[record]]
residue_change = "C82U A111G C150U C169U"
assigned_class = "Y"

[[record]]
residue_change = "A111G A120G A145G U176A"
assigned_class = "Y"

[[record]]
residue_change = "C82U A111C A120U A145G C150G C169A U176G"
assigned_class = "N"

[[record]]
residue_change = "C82U A111G A120C A145U C169A U176C"
assigned_class = "N"

[[record]]
residue_change = "C82G A111C A120U A145U C150G C169A U176A"
assigned_class = "N"

[[record]]
residue_change = "A145G C169G"
assigned_class = "Y"

[[record]]
residue_change = "C82G A111G A145C C169U U176C"
assigned_class = "Y"

[[record]]
residue_change = "C82U A111U A120U A145G C150U C169G"
assigned_class = "N"

[[record]]
residue_change = "C82A A111U A120C A145G C150A C169U U176C"
assigned_class = "Y"

[[record]]
residue_change = "A111U A120G U176C"
assigned_class = "Y"


We next turn to a different variant, shown below.
Evaluate C82U C150A C169A : reverse-splicing fitness at minimum 0.01? Y
